test: Oral bioavailability in rat at 5 mg/kg
Type: ADME, organism-based
condition.details: in vivo
measured.quantity: bioavailability (%)
Write the number in % without appending the unit.

Ask: Entry C[C@]1(CS(=O)(=O)N2CCC(Oc3ccc(OCc4ccccn4)cc3)CC2)NC(=O)NC1=O has what bioavailability?
Reply: 35

Ask: Requested field: bioavailability. Item: C[C@]1(CS(=O)(=O)N2CCC(Oc3ccc(OC(F)(F)C(F)F)cc3)CC2)NC(=O)NC1=O
Reply: 64

Ask: Can you look up the measured bioavailability of C[C@]1(CS(=O)(=O)N2CCN(c3ncc(OCc4ccc(C(F)(F)F)o4)cn3)CC2)NC(=O)NC1=O for me?
Reply: 100

* * *

test: Elimination half life in mouse
Format: ADME, organism-based
condition.details: in vivo, read-out: beta t1/2 (converted)
measured.quantity: half-life (h)
Express the result in h but write the number alone.

Ask: Given the entry C[C@]1(CS(=O)(=O)N2CCN(c3ncc(OCc4cccc(C#N)c4)cn3)CC2)NC(=O)NC1=O , report its measured half-life.
Reply: 5.8

* * *

For each of the molecules below, state its Vd.
test: Volume of distribution at steady state in rat at 2 mg/kg, iv and 5 mg/kg, po
Type: ADME, organism-based
condition.details: in vivo, read-out: Vdss
Number only, in L/kg; omit the unit.

Ask: // returns reported Vd for input C[C@]1(CS(=O)(=O)N2CCN(c3ncc(OCc4cc(C(F)(F)F)no4)cn3)CC2)NC(=O)NC1=O
Reply: 0.5

Ask: Dear colleague, I am looking for the recorded Vd of the following molecule: C[C@]1(CS(=O)(=O)N2CCN(c3ncc(OCc4ccc(C(F)(F)F)o4)cn3)CC2)NC(=O)NC1=O
Reply: 1.3

Ask: I would be grateful if you could share the reported Vd for C[C@]1(CS(=O)(=O)N2CCN(c3ncc(OCc4cnc(C#N)s4)cn3)CC2)NC(=O)NC1=O .
Reply: 0.5

Ask: # input molecule: C[C@]1(CS(=O)(=O)N2CCN(c3ncc(OCc4ccc(F)cc4)cn3)CC2)NC(=O)NC1=O ; wanted: its Vd
Reply: 0.5

Ask: Return reported Vd; argument: Cc1cc(COc2cnc(N3CCN(S(=O)(=O)C[C@@]4(C)NC(=O)NC4=O)CC3)nc2)on1
Reply: 0.5

Ask: # lookup: Vd of C[C@]1(CS(=O)(=O)N2CCN(c3ncc(OCc4cccc(C#N)c4)cn3)CC2)NC(=O)NC1=O
Reply: 0.5

Ask: What Vd value was documented for this molecule, C[C@]1(CS(=O)(=O)N2CCC(Oc3ccc(OCc4ccccn4)cc3)CC2)NC(=O)NC1=O ?
Reply: 0.8

Ask: Param item = C[C@]1(CS(=O)(=O)N2CCC(Oc3ccc(OC(F)(F)C(F)F)cc3)CC2)NC(=O)NC1=O ; retrieve measured Vd.
Reply: 0.6

* * *

pIC50: −log10 of the molar value.
Assignment: determine reported pIC50 for the given compounds.

Ask: What reported pIC50 corresponds to C[C@]1(CS(=O)(=O)N2CCC(Oc3ccc(C(F)(F)F)cc3)CC2)NC(=O)NC1=O on Cytochrome P450 2C19 (Homo sapiens, UniProt P33261)?
Reply: < 4.40

Ask: Please tell me: pIC50 of C[C@]1(CS(=O)(=O)N2CCC(Oc3ccc(OC(F)(F)C(F)F)cc3)CC2)NC(=O)NC1=O , system Cytochrome P450 2C19 (Homo sapiens, UniProt P33261)?
Reply: < 5.00

* * *

What half-life was measured for each of the following?
test: Half life in rat at 2 mg/kg, iv and 5 mg/kg, po
Format: ADME, organism-based
condition.details: in vivo
A number alone suffices; assume h.

Ask: Requested field: half-life. Item: C[C@]1(CS(=O)(=O)N2CCC(Oc3ccc(OC(F)(F)C(F)F)cc3)CC2)NC(=O)NC1=O
Reply: 16

Ask: Item under review: C[C@]1(CS(=O)(=O)N2CCN(c3ncc(OCc4ccc(C(F)(F)F)o4)cn3)CC2)NC(=O)NC1=O . Reported half-life?
Reply: 2.6

Ask: Look at this compound and give its reported half-life. C[C@]1(CS(=O)(=O)N2CCC(Oc3ccc(OCc4ccccn4)cc3)CC2)NC(=O)NC1=O
Reply: 2.5

* * *

Assign logD to each entry below.
test: physchem
condition.details: buffer, pH 7.4
Reply briefly: the number, and no unit.

Ask: Name the reported logD value associated with the molecule C[C@]1(CS(=O)(=O)N2CCN(c3ncc(OCc4ccc(C(F)(F)F)o4)cn3)CC2)NC(=O)NC1=O
Reply: 2.3

Ask: Consider the molecule shown here: C[C@]1(CS(=O)(=O)N2CCC(Oc3ccc(OC(F)(F)C(F)F)cc3)CC2)NC(=O)NC1=O What is its recorded logD?
Reply: 2

* * *

test: Fraction unbound in rat plasma
Assay type: ADME, cell-free
measured.quantity: fraction unbound
Give the figure only, with no unit attached.

Ask: Which fraction unbound value belongs to C[C@]1(CS(=O)(=O)N2CCC(Oc3ccc(OC(F)(F)C(F)F)cc3)CC2)NC(=O)NC1=O ?
Reply: 0.03

Ask: What measured fraction unbound goes with C[C@]1(CS(=O)(=O)N2CCN(c3ncc(OCc4ccc(C(F)(F)F)o4)cn3)CC2)NC(=O)NC1=O ?
Reply: 0.08
